system: IL-6-GFP PC-9GR; test: cell viability (CCK-8 OD) relative to DMSO control (fraction of control); higher = more viable cells; settings: compound concentration: 10 uM; treatment time: 48 h
endpoint.label: cell viability

Quick check: cell viability of `Cc1ccc(C(=O)Nc2ccc(CN3CCN(C)CC3)c(C(F)(F)F)c2)cc1C#Cc1cnc2cccnn12` ? 0.464

Would you mind telling me what cell viability value was observed for CN(C)CCCOc1nn(Cc2ccccc2)c2ccccc12.Cl [Benzydamine HCl] ? 0.996

If you can, please state the reported cell viability value of COc1cc2c(Nc3ccc(Br)cc3F)ncnc2cc1OCC1CCN(C)CC1 [Vandetanib (ZD6474)] . 0.578

Field request: cell viability | item: CC1CNc2c(cccc2S(=O)(=O)NC(CCCNC(=N)N)C(=O)N2CCC(C)CC2C(=O)O)C1.O (centres undefined) [Argatroban Monohydrate] 1.49
